B1: TPR 5TU (parent)
chain: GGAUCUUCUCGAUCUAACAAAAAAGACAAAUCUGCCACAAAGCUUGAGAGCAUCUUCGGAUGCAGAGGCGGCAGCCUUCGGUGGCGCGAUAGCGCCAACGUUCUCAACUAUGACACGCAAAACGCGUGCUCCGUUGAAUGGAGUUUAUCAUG

Variants of: B1
Assay: polymerase ribozyme fitness, log enrichment relative to wild type (log ratio); higher = more active; in vitro selection for triplet polymerase activity
Fewer inactive variants are shown than the library holds.
We use -2 as the dividing line for polymerase ribozyme fitness (log ratio): on or above the line is true (1), below is false (0).

Please review the following examples before continuing.
Is polymerase ribozyme fitness (log ratio) at least -2? Consider A28U A49U U139G
false (0)

Now consider U55A C103G and answer again.
false (0)

Now consider A91C A120C and answer again.
false (0)

More entries:
Is polymerase ribozyme fitness (log ratio) at least -2? Consider U6G A73U
true (1)

Now consider U4A C8A A20U A29C A40G G70C U101A A120U and answer again.
false (0)

Now consider A91G U145A and answer again.
false (0)

Now consider C87G G94C C132G and answer again.
false (0)

Now consider U31G A40G G83C A142G and answer again.
false (0)

Now consider U109G C114G and answer again.
false (0)

Now consider G81A C95A A98U and answer again.
true (1)

Now consider U4C C10G A28C A49C G86A C99G U104G and answer again.
false (0)

Now consider A12G A41C A47C C72A C85U G133A A150U and answer again.
false (0)

These data points were gathered from the RNAGym collection of RNA variant scans (doi:10.1073/pnas.2313332121).
